# SYSTEM_NAME: IDO1 (A172+IFNg cells, high IDO expressing cells) (Homo sapiens, UniProt P14902)
# Construct: A172+IFNg cells (high IDO expressing cells); endogenous in cells
# Sequence (P14902 whole entry): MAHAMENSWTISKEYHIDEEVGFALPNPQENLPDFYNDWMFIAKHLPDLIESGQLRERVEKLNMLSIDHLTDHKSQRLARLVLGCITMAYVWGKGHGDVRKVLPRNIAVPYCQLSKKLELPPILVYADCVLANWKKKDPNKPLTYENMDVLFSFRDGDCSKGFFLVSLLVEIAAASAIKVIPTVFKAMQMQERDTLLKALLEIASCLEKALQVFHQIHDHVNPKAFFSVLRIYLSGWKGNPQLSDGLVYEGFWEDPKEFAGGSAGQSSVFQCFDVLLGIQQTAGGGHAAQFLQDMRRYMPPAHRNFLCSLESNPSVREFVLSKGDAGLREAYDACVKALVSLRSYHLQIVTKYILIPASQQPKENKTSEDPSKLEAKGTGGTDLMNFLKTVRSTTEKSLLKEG
# TEST_NAME: NFK GreenScreen cell assay, inhibition of IDO in A172+IFNg cells
# EXPERIMENTAL_CONDITIONS: read-out: IDO cell Fluor EC50
RECORDED_ENDPOINT: EC50 (µM)

Below: 2 compounds and their reported EC50.
Determine its reported EC50: CC(C)(C)OC(=O)N1CC2(CC[C@H]([C@H]3c4ccccc4-c4cncn43)[C@H]2O)C1 (single isomer, unassigned)
4

Determine its reported EC50: O=C(C1CCS(=O)(=O)C1)N1CCC2(CC1)C[C@@H]([C@H]1c3ccccc3-c3cncn31)[C@H]2O (stereo partly shown)
6.3

P: CC(C)(C)OC(=O)N1CC2(CC[C@@H]([C@@H]3c4ccccc4-c4cncn43)[C@H]2O)C1 (single isomer, unassigned)
Q: O=C(C1CC1)N1CCC2(CC1)CC(C1c3ccccc3-c3cncn31)C2O (stereo not shown)
R: CC(C)(C)OC(=O)N[C@H]1CC[C@]2(CC1)C[C@H]([C@@H]1c3ccccc3-c3cncn31)[C@H]2O (single isomer, unassigned) [Example 24c]
S: Cc1ccncc1S(=O)(=O)N1CCC2(CC1)C[C@@H]([C@H]1c3ccccc3-c3cncn31)[C@H]2O
T: CC(=O)N1CCC(S(=O)(=O)N2CCC3(CC2)CC(C2c4ccccc4-c4cncn42)C3O)CC1 (stereo not shown)
Hello, I need these entries ordered by EC50, highest reading first. Thanks! To answer, write out the labels according to the requested order.
P, R, Q, T, S
(P: 8.2 µM, R: 5.2 µM, Q: 0.36 µM, T: 0.14 µM, S: 0.049 µM)

====

# SYSTEM_NAME: TDO2 (SW48 cells, high TDO expressing cells) (Homo sapiens, UniProt P48775)
# Construct: SW48 cells (high TDO expressing cells); endogenous in cells
# Sequence (P48775 whole entry): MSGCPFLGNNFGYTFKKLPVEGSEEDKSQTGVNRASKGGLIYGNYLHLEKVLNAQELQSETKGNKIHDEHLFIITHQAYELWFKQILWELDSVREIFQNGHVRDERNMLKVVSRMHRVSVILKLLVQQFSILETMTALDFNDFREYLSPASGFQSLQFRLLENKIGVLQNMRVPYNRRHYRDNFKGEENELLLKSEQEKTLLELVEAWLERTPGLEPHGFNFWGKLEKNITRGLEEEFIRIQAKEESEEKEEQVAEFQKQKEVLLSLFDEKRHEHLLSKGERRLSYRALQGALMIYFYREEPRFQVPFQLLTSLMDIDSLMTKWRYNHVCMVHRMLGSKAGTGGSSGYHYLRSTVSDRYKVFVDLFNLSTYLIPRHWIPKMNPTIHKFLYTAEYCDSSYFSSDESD
# TEST_NAME: NFK GreenScreen cell assay, inhibition of TDO in SW48 cells
# EXPERIMENTAL_CONDITIONS: read-out: TDO2 Cell Fluor EC50
RECORDED_ENDPOINT: EC50 (µM)

Below: 3 compounds and their reported EC50.
Determine its reported EC50: O=S1(=O)CCC2(CC[C@H]([C@@H]3c4ccccc4-c4cncn43)[C@@H]2O)CC1 (single isomer, unassigned) [Example 13b]
3.3

Determine its reported EC50: CC(C)(C)OC(=O)N1[C@@H]2CC[C@H]1C[C@]1(C[C@H]([C@@H]3c4ccccc4-c4cncn43)[C@@H]1O)C2 [Example 12a]
1.2

Determine its reported EC50: O=S(=O)(CF)N1CCC2(CC1)C[C@H]([C@@H]1c3ccccc3-c3cncn31)[C@@H]2O (single isomer, unassigned)
15

a: CC(C)(C)OC(=O)N1CC2(CC[C@H]([C@H]3c4ccccc4-c4cncn43)[C@H]2O)C1 (single isomer, unassigned)
b: O=C(CN1CCCCC1=O)N1CCC2(CC1)CC(C1c3ccccc3-c3cncn31)C2O (stereo not shown)
Min EC50? a | b API: response body contains the label of the selected item.
a
(a: 0.13 µM, b: 3.9 µM)

1: Cc1ccncc1S(=O)(=O)N1CCC2(CC1)C[C@@H]([C@H]1c3ccccc3-c3cncn31)[C@H]2O
2: CN1CC(C(=O)N2CCC3(CC2)CC(C2c4ccccc4-c4cncn42)C3O)CC1=O (stereo not shown)
Between 1 and 2 , which one shows the larger EC50 value? API: response body contains the label of the selected item.
2
(2: 9.9 µM, 1: 0.3 µM)

====

# SYSTEM_NAME: IDO1 (A172+IFNg cells, high IDO expressing cells) (Homo sapiens)
# Construct: A172+IFNg cells (high IDO expressing cells); endogenous in cells
# TEST_NAME: NFK GreenScreen cell assay, inhibition of IDO in A172+IFNg cells
# EXPERIMENTAL_CONDITIONS: read-out: IDO cell Fluor EC50
pEC50: −log10 of the molar value.
RECORDED_ENDPOINT: pEC50

A: CC(C(=O)N1CCC2(CC1)C[C@@H]([C@H]1c3ccccc3-c3cncn31)[C@H]2O)n1cncn1 (stereo partly shown) [compound 41]
B: CC(C)(C)OC(=O)N1[C@@H]2CC[C@H]1C[C@]1(C[C@@H]([C@@H]3c4ccccc4-c4cncn43)[C@H]1O)C2 (single isomer, unassigned) [Example 12l]
Between A and B , which one shows the larger pEC50 value? API: response body contains the label of the selected item.
A
(A: 5.82, B: 4.92)

a: NS(=O)(=O)N1CCC2(CC1)C[C@@H]([C@@H]1c3ccccc3-c3cncn31)[C@H]2O (single isomer, unassigned) [Example 11e]
b: CC(C)(C)OC(=O)N[C@H]1CC[C@]2(CC1)C[C@H]([C@H]1c3ccccc3-c3cncn31)[C@@H]2O [Example 24g]
Min pEC50? a | b API: response body contains the label of the selected item.
a
(a: 5.17, b: 5.74)

====

# SYSTEM_NAME: TDO2 (SW48 cells, high TDO expressing cells) (Homo sapiens)
# Construct: SW48 cells (high TDO expressing cells); endogenous in cells; host or cells: SW48 cells
# TEST_NAME: NFK GreenScreen cell assay, inhibition of TDO in SW48 cells
# Format: cell-based
# EXPERIMENTAL_CONDITIONS: read-out: TDO2 Cell Fluor EC50
pEC50: −log10 of the molar value.
RECORDED_ENDPOINT: pEC50

a: CC(=O)N1CCC(S(=O)(=O)N2CCC3(CC2)CC(C2c4ccccc4-c4cncn42)C3O)CC1 (stereo not shown)
b: CC(C(=O)N1CCC2(CC1)C[C@@H]([C@H]1c3ccccc3-c3cncn31)[C@H]2O)n1cncn1 (stereo partly shown)
c: CC(C)(C)OC(=O)N1CCC2(CC[C@@H]([C@@H]3c4ccccc4-c4cncn43)[C@@H]2O)CC1 (single isomer, unassigned)
Arrange these molecules by their pEC50, starting with the largest number. To answer, write out the labels according to the requested order.
a, b, c
(a: 6.34, b: 5.47, c: 4.82)

a: CS(=O)(=O)N1CCC2(CC[C@@H]([C@@H]3c4ccccc4-c4cncn43)[C@@H]2O)CC1 (single isomer, unassigned)
b: O=S(=O)(C1COC1)N1CCC2(CC1)C[C@H](C1c3ccccc3-c3cncn31)[C@@H]2O (stereo in doubt) [Example 23b]
Between a and b , which one shows the larger pEC50 value? API: response body contains the label of the selected item.
a

I: O=C(NCC(F)F)N1CCC2(CC1)C[C@@H]([C@H]1c3ccccc3-c3cncn31)[C@H]2O
II: CC(C)(C)OC(=O)N1[C@@H]2CC[C@H]1C[C@@]1(C[C@@H]([C@@H]3c4ccccc4-c4cncn43)[C@H]1O)C2 (single isomer, unassigned) [Example 12d]
Min pEC50? I | II API: response body contains the label of the selected item.
II

====

# SYSTEM_NAME: IDO1 (A172+IFNg cells, high IDO expressing cells) (Homo sapiens)
# Construct: A172+IFNg cells (high IDO expressing cells); endogenous in cells
# TEST_NAME: NFK GreenScreen cell assay, inhibition of IDO in A172+IFNg cells
# EXPERIMENTAL_CONDITIONS: read-out: IDO cell Fluor EC50
RECORDED_ENDPOINT: EC50 (nM)

Below: 4 molecules and their reported EC50.
Determine its reported EC50: O=C(C1CCOC1)N1CCC2(CC1)C[C@@H]([C@H]1c3ccccc3-c3cncn31)[C@H]2O (stereo partly drawn)
2000

Determine its reported EC50: CC(C)(C)OC(=O)N1[C@@H]2CC[C@H]1C[C@@]1(C[C@@H]([C@@H]3c4ccccc4-c4cncn43)[C@@H]1O)C2 (single isomer, unassigned) [Example 12m]
2000

Determine its reported EC50: `Cc1nc(S(=O)(=O)N2CCC3(CC2)C[C@@H]([C@H]2c4ccccc4-c4cncn42)[C@H]3O)cn1C`
320

Determine its reported EC50: CC(NC=O)C(=O)N1CCC2(CC1)CC(C1c3ccccc3-c3cncn31)C2O (stereo not drawn)
1100

I: O=S(=O)(C(F)F)N1CCC2(CC1)C[C@@H]([C@H]1c3ccccc3-c3cncn31)[C@H]2O (single isomer, unassigned) [Example 14b]
II: CC(C)(C)OC(=O)N[C@H]1CC[C@@]2(CC1)C[C@@H]([C@@H]1c3ccccc3-c3cncn31)[C@H]2O (single isomer, unassigned) [Example 24d]
Min EC50? I | II API: response body contains the label of the selected item.
I
(I: 68 nM, II: 1100 nM)

====

# SYSTEM_NAME: TDO2 (SW48 cells, high TDO expressing cells) (Homo sapiens, UniProt P48775)
# Construct: SW48 cells (high TDO expressing cells); endogenous in cells
# TEST_NAME: NFK GreenScreen cell assay, inhibition of TDO in SW48 cells
# EXPERIMENTAL_CONDITIONS: read-out: TDO2 Cell Fluor EC50
RECORDED_ENDPOINT: EC50 (µM)

Determine its reported EC50: NS(=O)(=O)N1CCC2(CC1)C[C@H]([C@H]1c3ccccc3-c3cncn31)[C@H]2O (single isomer, unassigned) [Example 11g]
0.93

Determine its reported EC50: NS(=O)(=O)N1CCC2(CC1)C[C@H]([C@@H]1c3ccccc3-c3cncn31)[C@@H]2O (single isomer, unassigned) [Example 11a]
0.66

Determine its reported EC50: CS(=O)(=O)N1CCC2(CC1)C[C@@H]([C@@H]1c3ccccc3-c3cncn31)[C@@H]2O (single isomer, unassigned)
8.6

Determine its reported EC50: `CC(=O)N1CCC2(CC1)C[C@@H]([C@H]1c3ccccc3-c3cncn31)[C@H]2O`
0.79

Determine its reported EC50: O=C(C1CCc2nncn2C1)N1CCC2(CC1)CC(C1c3ccccc3-c3cncn31)C2O (stereo not shown)
23

A: CC(C)(C)OC(=O)N[C@H]1CC[C@]2(CC1)C[C@@H]([C@H]1c3ccccc3-c3cncn31)[C@@H]2O (single isomer, unassigned) [Example 24o]
B: CC(=O)N1CC2(CC[C@H]([C@@H]3c4ccccc4-c4cncn43)[C@H]2O)C1 (single isomer, unassigned)
C: CC(C)(C)OC(=O)N1[C@@H]2CC[C@H]1C[C@]1(C[C@@H]([C@@H]3c4ccccc4-c4cncn43)[C@H]1O)C2 (single isomer, unassigned) [Example 12l]
Hello, I need these entries ordered by EC50, highest reading first. Thanks! To answer, write out the labels according to the requested order.
A, B, C

From: patent US11603373B2
